EC50 by entry:
Molecular target: T1, CD73 on the surface of human tumor cells (human, UniProt P21589 27-549)
T1 construct: whole, on cells; One entry for endogenous CD73 on all cell lines; the cell line is named under assay or readout; also called CD73 receptors on the surface of tumor cells; tumor cell CD73
T1 sequence (looked up): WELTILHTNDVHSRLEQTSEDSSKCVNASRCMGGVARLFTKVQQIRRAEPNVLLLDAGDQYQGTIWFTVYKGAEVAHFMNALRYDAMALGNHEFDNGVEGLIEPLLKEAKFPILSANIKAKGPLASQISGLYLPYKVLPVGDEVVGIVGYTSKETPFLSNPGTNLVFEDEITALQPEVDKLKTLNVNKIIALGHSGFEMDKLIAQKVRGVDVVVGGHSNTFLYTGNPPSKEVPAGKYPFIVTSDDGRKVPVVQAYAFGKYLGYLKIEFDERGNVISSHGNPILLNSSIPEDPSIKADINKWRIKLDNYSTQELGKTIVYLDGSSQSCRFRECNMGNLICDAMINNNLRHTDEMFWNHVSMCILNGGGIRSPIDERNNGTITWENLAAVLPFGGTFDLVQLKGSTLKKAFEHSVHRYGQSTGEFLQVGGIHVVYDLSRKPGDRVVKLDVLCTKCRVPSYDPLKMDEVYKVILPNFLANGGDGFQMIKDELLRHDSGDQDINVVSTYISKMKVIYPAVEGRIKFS
Assay: flow cytometry, MDA-MB-231 cells

binder	EC50, nM
mAb002c-VH-QG (antibody, V domains shown) VH: QVQLQQPGAELVKPGASVRLSCKASGYTLTSYWMHWVKKRPGQGLEWIGEINPSQGRSNYNEKFKSKATLTVDRSSSTVYMQLGSLTSEDSAVYYCARRGVSGNYFDYWGQGTTLTVSS VL: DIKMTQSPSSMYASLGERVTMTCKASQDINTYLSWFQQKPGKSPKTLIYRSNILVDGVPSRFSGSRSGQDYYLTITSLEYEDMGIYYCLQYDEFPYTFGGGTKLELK	0.43
mAb001c (antibody, V domains shown, also called human-mouse chimeric antibody mAb001c) VH: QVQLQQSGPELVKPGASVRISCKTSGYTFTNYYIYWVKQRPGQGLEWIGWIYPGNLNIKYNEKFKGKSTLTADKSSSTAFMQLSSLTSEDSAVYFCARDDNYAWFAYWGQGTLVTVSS VL: DIVMTQSHKFMSTSIGDRVSITCKASQDVSTAVAWYQQKPGQSPKLLIYWTNTRHTGVPDRFTGNTSGTEHTLTISSVQAEDLALYYCQQHYSTPFTFGSGTTLEIK	0.7
mAb002c-VK-SG (antibody, V domains shown) VH: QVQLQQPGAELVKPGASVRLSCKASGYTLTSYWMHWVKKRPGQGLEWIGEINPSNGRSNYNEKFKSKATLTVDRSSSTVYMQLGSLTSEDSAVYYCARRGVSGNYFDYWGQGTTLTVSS VL: DIKMTQSPSSMYASLGERVTMTCKASQDINTYLSWFQQKPGKSPKTLIYRSNILVSGVPSRFSGSRSGQDYYLTITSLEYEDMGIYYCLQYDEFPYTFGGGTKLELK	0.46
